target: SF9 affinity purified rat FPT (Rattus norvegicus, UniProt Q02293+Q04631); construct: made in house; host or cells: Sf9 insect cells; experiment: PFT inhibitory activity; type: biochemical; conditions: HEPES buffer pH 7.4, without 5 mM potassium phosphate; average of two tests; read-out: IC50 (μM) Hepes
Endpoint: IC50 (µM)

Please review the entries below; each comes with its answer.
>>> print(df.to_string())
                                   molecule  numeric_value
0  C/C=C/CN(CC(=O)NCC(C)(C)c1ccccc1)C(=O)[C@H](Cc1c[nH]cn1)NC(=O)OCc1ccccc1            1.4
1  CN(C)C(=O)CCN(CC(=O)NCC(C)(C)c1ccccc1)C(=O)C(Cc1cnc[nH]1)NC(=O)OCc1ccccc1 (centres unmarked)              4
2  CC(C)(CNC(=O)CN(CCN1CCOCC1)C(=O)[C@H](Cc1c[nH]cn1)NC(=O)OCc1ccccc1)c1ccccc1            2.1
3  CC(OC(=O)NC(Cc1c[nH]cn1)C(=O)N(CC(=O)NCC(C)(C)c1ccccc1)Cc1ccc(OCc2ccccc2)cc1)c1ccccc1 (centres unmarked)           0.25
4  COC(=O)CCN(CC(=O)NCC(C)(C)c1ccccc1)C(=O)[C@H](Cc1c[nH]cn1)NC(=O)OCc1ccccc1              5

A: CC(C)(CNC(=O)CN(CCN)C(=O)C(Cc1cnc[nH]1)NC(=O)OCc1ccccc1)c1ccccc1 (centres unmarked)
B: C[C@H](c1ccccc1)N(CC(=O)NCC(C)(C)c1ccccc1)C(=O)[C@H](Cc1c[nH]cn1)NC(=O)OCc1ccccc1
For the pair A and B , which entry has the numerically smaller recorded IC50? Return value: the label identifying the chosen record.
B
(B: 8.3 µM, A: 36 µM)

a: COCCN(CC(=O)NCC(C)(C)c1ccccc1)C(=O)C(Cc1cnc[nH]1)NC(=O)OCc1ccccc1 (centres unmarked)
b: CC(C)(CNC(=O)CN(CCC(=O)O)C(=O)[C@H](Cc1c[nH]cn1)NC(=O)OCc1ccccc1)c1ccccc1
c: CSCCN(CC(=O)NCC(C)(C)c1ccccc1)C(=O)C(Cc1cnc[nH]1)NC(=O)OCc1ccccc1 (centres unmarked)
d: CC(C)(CNC(=O)CN(CC(C)(C)c1ccccc1)C(=O)[C@H](Cc1c[nH]cn1)NC(=O)OCc1ccccc1)c1ccccc1
Please give the order of these molecules when sorted by IC50, largest value leading. The labels, placed in the requested order, form the answer.
a, b, c, d

====

target: SF9 affinity purified rat FPT (Rattus norvegicus, UniProt Q02293+Q04631); construct: made in house; host or cells: Sf9 insect cells; assay: PFT inhibitory activity; assay type: biochemical; details: HEPES buffer pH 7.4, without 5 mM potassium phosphate; average of two tests; read-out: IC50 (μM) Hepes
# IC50 listing for each entry below
Just the number please, in µM, no unit attached.

In [3]: df
Out[3]:
                                   compound  numeric_value
0  CC(C)OC(=O)CCN(CC(=O)NCC(C)(C)c1ccccc1)C(=O)[C@H](Cc1c[nH]cn1)NC(=O)OCc1ccccc1            2.2

Next molecule, please.
Recorded IC50 of `C[C@@H](c1ccccc1)N(CC(=O)NCC(C)(C)c1ccccc1)C(=O)[C@H](Cc1c[nH]cn1)NC(=O)OCc1ccccc1` , please.
0.57
